The origin of these recorded values is PubChem BioAssay (NCATS).

# assayProtocol: qHTS Assay for Lipid Storage Modulators (AID 1519)
# setupConditions: Drosophila S3 cells, BODIPY lipid droplet/cell ratio, laser cytometry; measured here: lipid channel max response; cells loaded with oleic acid
Records with an inconclusive call do not appear.
measurementKind: max response (%)
Form entry: value (%) — number only.

CC12NC(Cc3ccccc31)c1ccccc12 (stereo unspecified)    -0.147

Requested field: max response. Item: Cc1o[nH]c(=O)c1CC(N)C(=O)O (stereo unspecified)
-19

How about O=[N+]([O-])c1ccc2nc(N3CCNCC3)ccc2c1 ?
27.7

How about O=S(=O)(O)c1cc(O)ccc1O ?
12.6

How about C[N+](C)(C)CC#CCOC(=O)Nc1cccc(Cl)c1 ?
-8.94

How about CC(=O)c1c(O)c(C)c(O)c(Cc2c(O)c3c(c(C(=O)/C=C/c4ccccc4)c2O)OC(C)(C)C=C3)c1O ?
25.8

====

# Tested on: CP237
# assayProtocol: qHTS profiling for inhibitors of Plasmodium falciparum proliferation (AID 504749); note: nearly all actives have a fitted effect of over 60% in size
# setupConditions: P. falciparum in erythrocytes, SYBR Green DNA, 72 h; series mostly up to 28.7 µM
Records with an inconclusive call do not appear. Activity calls are given as the source filed them. Calls come from the whole dose curve; as a rule, active = well fitted inhibition curve with a large enough effect; inconclusive = small, poorly fitted or top-dose-only effect; inactive = flat fitted curve, though single readings scatter.
The categories you may choose from are y (active), n (inactive)

A selection of reference data follows.
CCOP(=O)(OCC)O/C(=C/Cl)c1ccc(Cl)cc1Cl    n
CN1c2ccccc2C(NCCCCCCC(=O)O)c2ccc(Cl)cc2S1(=O)=O (stereo not given)    n
CCN(CC)C(=O)/C(Cl)=C(\C)OP(=O)(OC)OC    n
O=c1[nH]cc(N(CCCl)CCCl)c(=O)[nH]1    n

Entry CC(C)(O)C1C2OC(=O)C1C1(O)CC3OC34C(=O)OC2C14C (stereo not given) : call = ?
n

How about Clc1ccccc1Cl ?
n

How about CC(Cc1ccccc1)NC=O (stereo not given) ?
n

How about O=C/C=C/c1ccccc1 ?
n

How about CCC1(c2ccccc2)C(=O)NC(=O)N(C)C1=O (stereo not given) ?
n

How about O=Cc1ccco1 ?
n

How about O=C(O)C(Cl)(Cl)Cl ?
n

====

# assayedTarget: Papain (Carica papaya) (UniProt P00784)
# Sequence (P00784 whole entry, looked up): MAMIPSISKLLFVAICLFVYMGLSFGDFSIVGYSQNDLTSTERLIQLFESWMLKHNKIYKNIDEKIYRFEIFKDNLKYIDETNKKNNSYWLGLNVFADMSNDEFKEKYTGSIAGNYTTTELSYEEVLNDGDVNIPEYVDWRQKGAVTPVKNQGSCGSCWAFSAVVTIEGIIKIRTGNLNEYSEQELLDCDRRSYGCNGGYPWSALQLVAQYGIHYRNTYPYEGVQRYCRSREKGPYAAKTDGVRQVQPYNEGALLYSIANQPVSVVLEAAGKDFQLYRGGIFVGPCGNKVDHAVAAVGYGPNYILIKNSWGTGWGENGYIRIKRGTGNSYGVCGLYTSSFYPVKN
# assayProtocol: Primary qHTS assay for inhibitors of the protease papain (AID 1645873);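 note: papain turnover of Z-FR-AMC read as the AMC fluorescence gain over 10 min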
# setupConditions: papain Z-FR-AMC cleavage, AMC fluorescence; series mostly up to 49.8 µM
Results filed as inconclusive are left out. Activity calls are given as the source filed them. Calls follow the shape of the dose curve; as a rule, active = well fitted inhibition curve with a large enough effect; inconclusive = small, poorly fitted or top-dose-only effect; inactive = no such curve, though single readings can be large or run the other way.
The categories you may choose from are YES for active, NO for inactive

Entry CCn1cnc2c(Nc3cccc(Cl)c3)nc(N[C@@H]3CCCC[C@@H]3N)nc21 : call = ?
NO

How about Oc1ccc2c3c1O[C@H]1c4oc5ccccc5c4C[C@@]4(O)C(C2)N(CC2CC2)CCC314 (some centres not stated) ?
NO

How about O=c1ccc2[nH]cc(C3=CCNCC3)c2[nH]1 ?
YES

How about N=C(N)c1ccc(CS(=O)(=O)F)cc1 ?
NO

How about CO[C@H]1CC=C2CCN3CCC4=C(CC(=O)OC4)[C@]23C1 ?
NO

How about NNC(N)=O ?
NO

====

# System: CP247
# assayProtocol: qHTS profiling for inhibitors of Plasmodium falciparum proliferation (AID 504749); note: nearly all actives have a fitted effect of over 60% in size
# setupConditions: P. falciparum in erythrocytes, SYBR Green DNA, 72 h; series mostly up to 28.7 µM
Results filed as inconclusive are left out. Calls of active or inactive are those of the source. Calls follow the shape of the dose curve; as a rule, active = well fitted inhibition curve with a large enough effect; inconclusive = small, poorly fitted or top-dose-only effect; inactive = flat fitted curve, though single readings scatter.
The categories you may choose from are active, inactive

A selection of reference data follows.
CCCCCCCCCC(=O)O[C@H]1CC[C@H]2[C@@H]3CCC4=CC(=O)CC[C@]4(C)[C@H]3CC[C@]12C    inactive
O[C@H]1[C@H]2[C@H](O)CCCN2C[C@H]1O    inactive
CCCN1CCCC2Cc3[nH]ncc3CC21 (configuration not stated)    inactive
CC(=O)OC1CN2CCC1CC2 (configuration not stated)    inactive
c1ccc2sc(SNC3CCCCC3)nc2c1    inactive
O=S(=O)(O)c1cc(O)ccc1O    inactive
CC1CCC(C(C)C)C(OC(=O)c2ccccc2N)C1 (configuration not stated)    inactive
Cn1sc(Cl)cc1=O    inactive
c1csc(C2(N3CCCCC3)CCCCC2)c1    inactive
O=C(CCl)c1ccc(Oc2ccc(C(=O)CCl)cc2)cc1    inactive

Consider the additional compound presented here.
Entry Oc1cccc[c]1[Hg][Cl] : call = ?
active
